Quick reference: DC50 of the listed items.
target: BRAF G469A (Homo sapiens, UniProt P15056, G469A); construct: Horizon Discovery (HCT-116 BRAF−/− cells); host or cells: HCT-116 BRAF−/− cells, clone 34, lentiviral transduction; experiment: BRAF HiBiT degradation assay, C-terminal HiBiT-tagged BRAF G469A overexpressed in HCT-116 BRAF−/− cells (clone 34), Nano-Glo HiBiT Lytic assay; format: cell-based; conditions: BRAF G469A (Class 2), HCT-116 BRAF−/− cells; DC50 at 50% degradation
Sequence (P15056 whole entry G469A): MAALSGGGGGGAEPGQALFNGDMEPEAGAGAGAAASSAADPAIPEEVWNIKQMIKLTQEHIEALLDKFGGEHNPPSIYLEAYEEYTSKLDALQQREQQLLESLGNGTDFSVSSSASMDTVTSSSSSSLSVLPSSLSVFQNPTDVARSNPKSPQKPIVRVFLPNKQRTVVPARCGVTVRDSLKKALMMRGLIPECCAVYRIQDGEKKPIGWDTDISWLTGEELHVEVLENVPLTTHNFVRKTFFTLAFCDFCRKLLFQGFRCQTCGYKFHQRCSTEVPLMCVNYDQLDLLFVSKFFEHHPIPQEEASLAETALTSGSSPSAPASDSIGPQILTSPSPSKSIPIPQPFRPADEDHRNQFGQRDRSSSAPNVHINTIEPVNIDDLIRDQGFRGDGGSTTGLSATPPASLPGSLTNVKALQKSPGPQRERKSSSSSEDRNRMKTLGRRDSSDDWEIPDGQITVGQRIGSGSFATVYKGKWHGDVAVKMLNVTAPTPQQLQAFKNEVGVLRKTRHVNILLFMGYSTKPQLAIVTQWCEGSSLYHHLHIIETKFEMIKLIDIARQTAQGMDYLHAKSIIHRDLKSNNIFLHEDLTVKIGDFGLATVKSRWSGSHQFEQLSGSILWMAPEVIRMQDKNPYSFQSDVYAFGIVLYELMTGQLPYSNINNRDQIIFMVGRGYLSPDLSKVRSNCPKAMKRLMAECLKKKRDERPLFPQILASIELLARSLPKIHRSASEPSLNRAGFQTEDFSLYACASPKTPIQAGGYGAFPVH

{"columns": ["Compound", "DC50"],
 "data": [
  ["O=C1CCC(N2C(=O)c3ccc(N4CC(CN5CC(c6ccc(-n7cc(-c8ccc9c(c8)CC/C9=N/O)c(-c8ccncc8)n7)cc6)C5)C4)cc3C2=O)C(=O)N1 (racemic) [Compound 262]", "> 500 nM"],
  ["C[C@@H]1CN(c2ccc(-n3cc(-c4cc(Cl)cc(NS(=O)(=O)N5CC[C@@H](F)C5)c4F)c(-c4ccncc4)n3)cc2)CCN1CC1CCN(c2ccc(C3CCC(=O)NC3=O)cn2)CC1 (mixture of isomers) [Compound 318]", "< 10 nM"],
  ["CCCS(=O)(=O)Nc1cccc(-c2nc(C3CCC4(CC3)CN(C(=O)CC3CCN(C5CCN(c6ccc7c(c6)C(=O)N(C6CCC(=O)NC6=O)C7=O)CC5)CC3)C4)sc2-c2ccnc(N)n2)c1F (racemic) [Compound 247]", "> 500 nM"]
]}

Would you kindly share the measured DC50 for C[C@@H]1CN(c2ccc(-n3cc(-c4cc(Cl)cc(NS(=O)(=O)N5CCCC5)c4F)c(-c4ccncc4)n3)c(F)c2)C[C@@H](C)N1CC1CCN(c2ccc(C3CCC(=O)NC3=O)cn2)CC1 (mixture of isomers) [Compound 382] ?
10 to 50 nM

Would you kindly repeat that for O=C1CCN(c2ccc(N3CCC(CN4CCN(c5ccc(-n6cc(-c7cc(Cl)cc(NS(=O)(=O)N8CCCC8)c7F)c(-c7ccncc7)n6)cc5F)CC4)CC3)cc2)C(=O)N1 [Compound 361] ?
> 500 nM
